# tested-on: RAR beta (Homo sapiens, UniProt P10826)
# Sequence (P10826 183-417 limits assumed): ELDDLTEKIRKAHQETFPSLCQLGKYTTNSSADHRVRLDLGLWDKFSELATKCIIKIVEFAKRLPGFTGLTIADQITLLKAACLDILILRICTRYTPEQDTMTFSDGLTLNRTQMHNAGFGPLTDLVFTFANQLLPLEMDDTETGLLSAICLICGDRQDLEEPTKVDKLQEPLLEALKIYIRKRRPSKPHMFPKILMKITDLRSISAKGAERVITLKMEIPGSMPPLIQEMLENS
# protocol-text: Transactivation test, HeLa cells stably transfected with RAR beta ER-DBD and ERE-luciferase reporter
# applied-conditions: crossed curves against reference antagonist, Schild regression, read-out: RAR beta Kd app
reported-property: Kd (nM)

* CCN(CC)c1ccc(C(COc2ccc(C(=O)O)cc2)=NO)cc1C(C)(C)C | 500
* CCN(CC)c1ccc(C(COc2ccc(C(=O)O)c(O)c2)=NO)cc1C(C)(C)C | 500

---

# tested-on: RAR gamma (Homo sapiens)
# Sequence (P13631 185-419 limits assumed): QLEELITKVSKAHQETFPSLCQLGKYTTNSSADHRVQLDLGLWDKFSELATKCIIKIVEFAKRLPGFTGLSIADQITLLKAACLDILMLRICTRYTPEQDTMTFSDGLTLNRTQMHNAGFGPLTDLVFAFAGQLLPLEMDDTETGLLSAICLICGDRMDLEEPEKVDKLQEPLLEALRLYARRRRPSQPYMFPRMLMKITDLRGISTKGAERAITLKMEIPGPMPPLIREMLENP
# protocol-text: Transactivation test, HeLa cells stably transfected with RAR gamma ER-DBD and ERE-luciferase reporter
# applied-conditions: crossed curves against reference antagonist, Schild regression, read-out: RAR gamma Kd app
reported-property: Kd (nM)

[P] CCN(CC)c1ccc(C(COc2ccc(C(=O)O)c(O)c2)=NO)cc1C(C)(C)C
[Q] CCN(CC)c1ccc(C(COc2ccc(C(=O)O)cc2)=NO)cc1C(C)(C)C
Lookup: Please indicate which has the smaller reported Kd: P , or Q . # respond with the chosen item's label
Found: P

src = patent US7439396B2
